# assayed.target: T1, human IL-12RB2 with C-terminal HA tag, transiently expressed on HEK-293T cells (human, UniProt Q99665 24-862)
# T1 construct: whole, on cells; also called human IL-12Rβ2
# T1 sequence (looked up): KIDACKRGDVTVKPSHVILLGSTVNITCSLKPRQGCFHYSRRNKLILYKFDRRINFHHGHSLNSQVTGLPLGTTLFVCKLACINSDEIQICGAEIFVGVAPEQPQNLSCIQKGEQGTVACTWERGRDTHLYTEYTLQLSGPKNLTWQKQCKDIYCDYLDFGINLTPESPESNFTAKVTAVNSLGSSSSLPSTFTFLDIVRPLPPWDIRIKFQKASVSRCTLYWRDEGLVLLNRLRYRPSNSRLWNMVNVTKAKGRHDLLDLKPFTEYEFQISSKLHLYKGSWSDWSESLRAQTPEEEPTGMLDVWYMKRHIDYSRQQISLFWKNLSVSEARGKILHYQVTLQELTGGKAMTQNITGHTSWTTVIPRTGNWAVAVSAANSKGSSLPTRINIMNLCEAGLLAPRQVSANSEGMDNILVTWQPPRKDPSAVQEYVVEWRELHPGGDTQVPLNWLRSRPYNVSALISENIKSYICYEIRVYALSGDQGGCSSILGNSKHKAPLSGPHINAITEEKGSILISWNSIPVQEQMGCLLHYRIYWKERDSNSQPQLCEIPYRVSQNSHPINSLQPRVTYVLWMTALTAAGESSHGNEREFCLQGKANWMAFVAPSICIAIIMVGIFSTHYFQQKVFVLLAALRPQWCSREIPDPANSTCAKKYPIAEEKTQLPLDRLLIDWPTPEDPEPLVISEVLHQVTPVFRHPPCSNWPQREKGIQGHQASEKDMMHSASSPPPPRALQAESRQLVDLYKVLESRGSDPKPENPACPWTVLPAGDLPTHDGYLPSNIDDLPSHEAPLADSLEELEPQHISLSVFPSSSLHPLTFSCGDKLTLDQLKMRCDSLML
# protocol.details: FACS, periplasmic extract, HEK-293T
reported.property: FOB (fold)
Please state the figure in fold; there is no need to write the unit.

Task item: Looking for the measured FOB of VHH356B2 (VHH) VHH: QLQLVESGGGLVQPGGSLRLSCAASGSIFSINAMGWYRQAPGKQRELVAAITSGGSTAYADSVKGRFTISRDNAKNTVYLQMNSLKPEDTAVYYCNADRDPITSWYVRGDYWGQGTQVTVSS , can you help?
Reply: 1.43

Task item: FOB for VHH190B2 (VHH) VHH: QVQLQESGPGLVKPSQTLSLTCTVSGGSITTNYYYWSWIRQPPGKGLEWMGAIAYSGSTYYSPSLKSRTSISRDTSKNQFTLQLSSVTPEDTAVYYCASGINFYSNYPTLNEYDYWGQGTQVTVSS ?
Reply: 2.25

Task item: Using the record for VHH194B2 (VHH) VHH: QLQLVESGGGLVQAGGSLRLSCAASGLTFSGYTVGWFRQAPGKEREFVAAINWSSAYTYSEFVKGRFTISRDNAKNTVYLQMSSLKPEDTAVYYCAARRSRTSWYASTAEAYDYWGQGTQVTVSS , report its FOB.
Reply: 1.68

Task item: For the binder VHH19B2 (VHH) VHH: QVQLVESGGGLVQPGGSLRLSCAASGFTFSNYAMSWVRQAPGKGLEWVSAINSDGTSTSYADSVKGQFTISRDNAKNTLYLQMNSLKPEDTAVYYCTKWEGDTDSDYKFKDYWGQGTQVTVSS , what FOB is on record?
Reply: 1.63

Task item: Fill in the blank: the reported FOB of VHH277B2 (VHH) VHH: QVQLVESGGGLVQLGDSLRLSCAASGRGFSSWTMAWFRQALGKRREFVAAITATGARTCSAESEGRFTISRDNAKNMVFLQMNSLKAEDTAVYYCAATEIAGWDPGMGDKYPYWGQGTQVTVSS is ____.
Reply: 1.21

Task item: Request the reported FOB associated with VHH68B2 (VHH) VHH: EVQLVESGGGLVQAGGSLKLSCAASGGTFSSYAMGWFRQAPGKEREFVAAIMRSGDTTVYVDSVKGRFTVSRDNAKNTVYLQMNSLKPEDAAVYYCAAGRPVTRTYYSTYTYPHDYDYWGQGTQVTVSS
Reply: 2.25

Task item: Which FOB reading was recorded for the binder VHH278B2 (VHH) VHH: QVQLVESGGGLVQAGGSLKLSCAASGGTFSSYAMGWFRQAPGKEREFVAVIMRSGDTTAYVDSVKGRFTVSRDNAKNTVYLQMNSLKPEDAAVYFCAAGRPVTRTYYHTYTYPHDYDYWGQGTQVTVSS ?
Reply: 2.46

Task item: What does the data say about its FOB? Entry: VHH229B2 (VHH) VHH: QVQLVESGGGLVQAGGSLRLSCAASGRTFSSYAMGWFRQAPGKEREFVSAISWNGGSRYYVESVEGRFTISRDNAKNTVYLQMNSLKPEDTAVYYCAASRIYTNYVARSYEYDDWGQGTQVTVSS
Reply: 1.42

Data credit: patent US20250019450A1
